Where do these numbers come from? They come from ChEMBL document CHEMBL1141064.

Target chain: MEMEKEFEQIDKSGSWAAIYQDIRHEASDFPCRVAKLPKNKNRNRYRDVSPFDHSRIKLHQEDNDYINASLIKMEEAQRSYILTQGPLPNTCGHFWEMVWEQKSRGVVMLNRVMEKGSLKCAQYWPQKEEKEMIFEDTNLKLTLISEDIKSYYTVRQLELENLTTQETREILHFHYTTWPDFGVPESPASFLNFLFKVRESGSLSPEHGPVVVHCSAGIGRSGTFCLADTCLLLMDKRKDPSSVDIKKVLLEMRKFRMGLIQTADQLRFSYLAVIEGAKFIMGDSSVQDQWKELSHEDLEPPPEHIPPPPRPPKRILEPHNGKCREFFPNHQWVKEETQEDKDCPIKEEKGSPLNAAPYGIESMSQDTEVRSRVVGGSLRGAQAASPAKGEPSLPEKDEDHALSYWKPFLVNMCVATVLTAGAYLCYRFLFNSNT
measured-property: pKi
By convention, pKi is the negative base-10 log of a molar concentration.

Exercise: What value of measured pKi is listed for `CN(Cc1ccccc1)C(=O)CN(Cc1ccc(C(F)(F)P(=O)(O)O)c(Br)c1)S(=O)(=O)c1ccc(OCC(=O)O)cc1` ?
Key: 7.85

====

Protein target, amino acids: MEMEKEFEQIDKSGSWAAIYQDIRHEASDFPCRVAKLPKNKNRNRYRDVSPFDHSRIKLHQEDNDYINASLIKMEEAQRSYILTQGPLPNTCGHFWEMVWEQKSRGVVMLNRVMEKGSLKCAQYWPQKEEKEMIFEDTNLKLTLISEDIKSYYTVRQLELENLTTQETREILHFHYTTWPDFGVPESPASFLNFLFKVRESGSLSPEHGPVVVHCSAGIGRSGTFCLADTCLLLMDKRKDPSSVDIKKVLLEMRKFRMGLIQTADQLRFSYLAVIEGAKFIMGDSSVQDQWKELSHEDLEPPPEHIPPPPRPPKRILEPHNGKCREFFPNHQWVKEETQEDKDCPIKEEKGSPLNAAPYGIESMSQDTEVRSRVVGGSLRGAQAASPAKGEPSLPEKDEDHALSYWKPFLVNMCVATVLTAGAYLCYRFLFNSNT
Give measured IC50 for each item. Keep answers brief.
Please respond with the number in µM and leave the unit unwritten.

Exercise: Quick one: IC50 for `O=C(c1ccc(CN(Cc2ccccc2)S(=O)(=O)c2ccccc2[N+](=O)[O-])cc1)C(F)(F)P(=O)(O)O` ?
Key: 12

Exercise: So what's the measured IC50 for this one? `O=C(O)COc1ccc(S(=O)(=O)N(Cc2ccccc2)Cc2ccc(C(F)(F)P(=O)(O)O)cc2)cc1Br`
Key: 4

Exercise: Dear colleague, I am looking for the recorded IC50 of the following compound: `COc1cc(CN(Cc2ccc(-c3csnn3)cc2)S(=O)(=O)c2ccc(OCC(=O)O)cc2)ccc1C(F)(F)P(=O)(O)O`
Key: 0.06

Exercise: // returns reported IC50 for input `O=C(O)COc1ccc(S(=O)(=O)N(Cc2ccccc2)Cc2ccc(C(F)(F)P(=O)(O)O)cc2)cc1Cl`
Key: 3

Exercise: Quick check: IC50 of `O=C(O)COc1ccc(C(=O)N(Cc2ccc(-c3csnn3)cc2)Cc2ccc(C(F)(F)P(=O)(O)O)cc2)cc1` ?
Key: 2.3

Exercise: Give its IC50 value. Item: `O=C(O)COc1ccc(S(=O)(=O)N(Cc2ccc(NC(=O)c3ccccc3)cc2)Cc2ccc(C(F)(F)P(=O)(O)O)cc2)cc1`
Key: 0.63

Exercise: Look up IC50: `CN(Cc1ccccc1)C(=O)CN(Cc1ccc(C(F)(F)P(=O)(O)O)c(Br)c1)S(=O)(=O)c1ccc(OCC(=O)O)cc1`
Key: 0.031

Exercise: // query IC50 value for entry `O=C(O)c1cc(S(=O)(=O)N(Cc2ccccc2)Cc2ccc(C(F)(F)P(=O)(O)O)cc2)ccc1O`
Key: 2.9

Exercise: Please give the measured IC50 for this compound: `Cc1cc(S(=O)(=O)N(Cc2ccccc2)Cc2ccc(C(F)(F)P(=O)(O)O)cc2)ccc1OCC(=O)O`
Key: 4

Exercise: What value of IC50 has been recorded for this entry: `CS(=O)(=O)Nc1ccc(CN(Cc2ccc(C(F)(F)P(=O)(O)O)cc2)S(=O)(=O)c2ccc(OCC(=O)O)cc2)cc1`
Key: 0.18

Exercise: For the compound shown here, `O=C(O)COc1ccc(S(=O)(=O)N(CC(=O)N2CCCCC2)Cc2ccc(C(F)(F)P(=O)(O)O)cc2)cc1` , give the reported IC50.
Key: 6.8

Exercise: Return reported IC50; argument: `O=P(O)(O)C(F)(F)c1ccc(CNCc2ccc(-c3csnn3)cc2)cc1`
Key: 13.7

Exercise: State the recorded IC50 for this entry: `O=C(O)COc1ccc(S(=O)(=O)N(Cc2ccccc2)Cc2ccc(C(F)(F)P(=O)(O)O)cc2)cc1C(F)(F)F`
Key: 4

Exercise: Value lookup for IC50; key = `CC(=O)c1cccc(CN(Cc2ccc(C(F)(F)P(=O)(O)O)cc2)S(=O)(=O)c2ccc(OCC(=O)O)cc2)c1`
Key: 0.77

Exercise: Endpoint output: IC50 of `O=C(O)COc1ccc(S(=O)(=O)N(Cc2ccccc2)Cc2ccc(C(F)(F)P(=O)(O)O)cc2)cc1F` . Value?
Key: 3
